I'd appreciate it if you could supply activation values for the items below.
- Assay system: G-protein coupled receptor 151 (Homo sapiens)
- Procedure text: GPR151 activators, triplicate retest, confirmation, cell-based, PathHunter beta-arrestin, luminescence, set 2 (AID 1508608);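 also: 0% = plate median of compound wells and 100% = EA reagent high control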
- Experimental context: GPR151 PathHunter beta-arrestin cells, 90 min, at 11.2 µM, hits give high values; 100% = signal from added EA reagent unless noted
Hit rate of the full screen: of about 2,300 compounds, about 20 (0.9%) were called active. Only a selection was taken, and actives are over-represented in it overall.

QUERY: Param readout= activation; system= G-protein coupled receptor 151 (Homo sapiens); entry= C[C@@H]1O[C@@H](O[C@H]2C[C@@H](O)[C@]3(CO)[C@H]4[C@H](O)C[C@]5(C)[C@@H](C6=CC(=O)OC6)CC[C@]5(O)[C@@H]4CC[C@]3(O)C2)[C@H](O)[C@H](O)[C@H]1O ; returns value.
RESULT: 13.4% [setting not given] (inactive)

QUERY: For the record CCOC(=O)c1nc2ccccc2c(=O)n1-c1ccc(C)cc1Br , what value of activation is listed for G-protein coupled receptor 151 (Homo sapiens)?
RESULT: -0.06% (inactive)

QUERY: API: value(readout=activation, system=G-protein coupled receptor 151 (Homo sapiens)) for record CCCCOc1ccc(C(=O)Nc2ccc(Cl)cc2C(=O)c2ccccc2)cc1
RESULT: -0.96% (inactive)

QUERY: API: value(readout=activation, system=G-protein coupled receptor 151 (Homo sapiens)) for record CC[n+]1c(/C=C/C=C2\N(C)c3ccccc3C2(C)C)n(-c2ccccc2)c2cc(Cl)ccc21
RESULT: 13.7% (inactive)

The values you see were collected from PubChem BioAssay AID1508608.
